# target-or-system: Left-right determination factor 2 (Homo sapiens) (UniProt O00292)
# Sequence (O00292 whole entry, looked up): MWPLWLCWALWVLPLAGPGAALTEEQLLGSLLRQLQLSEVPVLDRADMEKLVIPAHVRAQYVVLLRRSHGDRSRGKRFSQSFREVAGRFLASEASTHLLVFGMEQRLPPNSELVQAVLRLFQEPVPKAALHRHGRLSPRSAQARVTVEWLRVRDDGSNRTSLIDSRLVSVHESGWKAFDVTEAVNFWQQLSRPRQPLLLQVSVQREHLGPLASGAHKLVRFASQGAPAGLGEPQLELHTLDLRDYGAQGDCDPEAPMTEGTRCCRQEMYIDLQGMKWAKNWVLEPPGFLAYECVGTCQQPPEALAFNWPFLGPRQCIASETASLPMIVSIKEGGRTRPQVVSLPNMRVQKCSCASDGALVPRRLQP
# assay-protocol: LEFTY2 binders on small-molecule microarrays, primary screen, biochemical, small-molecule microarray, 635 nm fluorescence scan (AID 1110)
# experimental-conditions: LEFTY2 binding, higher = more signal
measured-endpoint: composite z-score

CCCC=C(CCC)[C@@H](NS(=O)(=O)c1ccc(C(F)(F)F)cc1)c1ccc(-c2ccccc2)cc1 : 0.34
O=C1O[C@@H](c2ccccc2)[C@@H](c2ccccc2)N2[C@@H](c3ccccc3OCCO)[C@]3(C(=O)Nc4ccc(C#CC5=CCCCC5)cc43)[C@@H](C(=O)O)[C@H]12 : 0.0802
COC(=O)C(CC#Cc1ccc2c(c1)[C@]1(C(=O)N2)[C@H](C(=O)N2CCCCCCC2)[C@H]2C(=O)O[C@H](c3ccccc3)[C@H](c3ccccc3)N2[C@@H]1c1ccc(O)cc1)C(=O)OC : -0.537
C=CCC(OC(C)=O)[C@@H]1[C@@H](N(Cc2cc3ccccc3o2)C(=O)c2ccc(C)cc2)c2cc(OCCCO)ccc2N1C(=O)c1ccc2ccccc2n1 (some centres not stated) : 0.21

Please state, for each entry, its recorded composite z-score.
1. C=C(CCCC)/C(=C/C[C@@H](OC(=O)c1ccncc1)c1cccc(OCCO)c1)c1cc(C(=O)OC)ccc1OC
2. CCC(=O)[C@]12O[C@@]3([C@@H]4C(=O)OCC[C@@H]41)N(CC)C(C)=C(C(=O)OC)[C@@H](c1ccccc1)N3C2=O
3. CO[C@H]1O[C@H](CO)[C@@H](OC(=O)Nc2ccccc2)[C@H](OC(=O)Nc2ccc3c(c2)OCO3)[C@@H]1OC(=O)Nc1ccc2c(c1)OCO2

[reply]
1: 0.725; 2: 0.594; 3: -0.244
